# assayedSystem: Metabotropic glutamate receptor 8 (Rattus norvegicus) (UniProt P70579)
# Sequence (P70579 whole entry, looked up): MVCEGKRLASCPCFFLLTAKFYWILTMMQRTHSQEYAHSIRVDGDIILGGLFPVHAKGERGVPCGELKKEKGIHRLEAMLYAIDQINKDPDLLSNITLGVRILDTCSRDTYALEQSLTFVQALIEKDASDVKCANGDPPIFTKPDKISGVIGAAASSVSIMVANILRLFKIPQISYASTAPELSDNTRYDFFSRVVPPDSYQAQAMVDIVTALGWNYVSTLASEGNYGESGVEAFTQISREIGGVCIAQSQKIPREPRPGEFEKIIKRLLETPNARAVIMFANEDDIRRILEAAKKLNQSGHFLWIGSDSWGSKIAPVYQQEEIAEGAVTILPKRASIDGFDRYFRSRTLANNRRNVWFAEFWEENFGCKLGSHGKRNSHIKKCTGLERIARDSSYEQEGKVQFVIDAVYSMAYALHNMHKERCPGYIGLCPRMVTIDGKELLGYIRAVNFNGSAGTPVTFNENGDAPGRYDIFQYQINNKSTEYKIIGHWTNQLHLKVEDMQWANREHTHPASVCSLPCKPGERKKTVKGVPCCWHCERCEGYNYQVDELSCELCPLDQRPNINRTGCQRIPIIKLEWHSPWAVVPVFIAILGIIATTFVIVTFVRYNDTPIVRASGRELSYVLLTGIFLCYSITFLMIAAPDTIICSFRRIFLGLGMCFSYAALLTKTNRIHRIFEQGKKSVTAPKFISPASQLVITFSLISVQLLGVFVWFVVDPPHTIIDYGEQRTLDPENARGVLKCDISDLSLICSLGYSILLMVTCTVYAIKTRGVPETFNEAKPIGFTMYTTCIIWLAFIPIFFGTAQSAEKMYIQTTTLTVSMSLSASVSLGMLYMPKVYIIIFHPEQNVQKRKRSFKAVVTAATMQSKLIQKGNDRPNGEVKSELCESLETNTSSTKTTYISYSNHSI
# assay: mGluR8 Gi/Go-coupled signaling modulation – cell-based, rat, thallium flux, HTS, primary screen (AID 488969)
# conditionLabel: HEK293 rat mGluR8, GIRK (G protein-gated inwardly rectifying potassium channel) thallium flux, FluoZin2; at 10 µM; stronger effect = higher value; submaximal glutamate (EC20) added with thallium
In all, about 110,000 compounds were measured (“z-score”: median about -0.1, highest 2% from about 2 on). The sample holds the highest values, similar compounds and a random draw of the others, so the mix is not that of the screen.
z-score values by entry

O=C(CSc1ccc(-c2ccccc2)nn1)c1ccccc1; 0.0905

## Task System Metabotropic glutamate receptor 8 (Rattus norvegicus) (UniProt P70579). Read-out z-score. Item Cc1ccc(N2C(=O)C3CC(c4ccccc4)=C4C5C=CC(C6C(=O)N(c7ccc(C)cc7)C(=O)C56)C4C3C2=O)cc1 (stereo not drawn) . Report value.
## Result -0.0459

## Task System Metabotropic glutamate receptor 8 (Rattus norvegicus) (UniProt P70579). Read-out z-score. Item O=C(Cc1ccccc1)N1CCN(C(=O)c2ccco2)CC1 . Report value.
## Result -0.0691

## Task System Metabotropic glutamate receptor 8 (Rattus norvegicus) (UniProt P70579). Read-out z-score. Item O=C(N/N=C/c1ccc[nH]1)c1ccccc1[N+](=O)[O-] . Report value.
## Result -0.104
